# Test system: STS26T
# experimentSummary: relative IC50 (inflection point of fitted dose-response curve, CellTiter-Glo viability, 72 h; top asymptote may be below 50% inhibition); higher = less potent
Recorded relative IC50, one value per entry.
The response must be a number in nM with no trailing unit.

Some solved entries appear below for comparison.
// query Look up and report measured relative IC50 for this entry: CC(C)c1c(C(=O)Nc2ccccc2)c(-c2ccccc2)c(-c2ccc(F)cc2)n1CC[C@@H](O)C[C@@H](O)CC(=O)O [Atorvastatin]
// result 2090

// query Look up and report measured relative IC50 for this entry: CC1(COc2ccc3c(c2)ncn3-c2ccc3cccc(N4CCC(N)CC4)c3n2)COC1 [Crenolanib]
// result 2710

// query Look up and report measured relative IC50 for this entry: CCN(CC)CCCC(C)Nc1c2ccc(Cl)cc2nc2ccc(OC)cc12 (stereo not drawn) [Mepacrine aq]
// result 1320

More entries:
// query Look up and report measured relative IC50 for this entry: O=C(CCCCCCC(=O)Nc1ccccc1)NO [Vorinostat]
// result 2250

// query Look up and report measured relative IC50 for this entry: CN1CCN(CCOc2cc(OC3CCOCC3)c3c(Nc4c(Cl)ccc5c4OCO5)ncnc3c2)CC1 [Saracatinib]
// result 1110

// query Look up and report measured relative IC50 for this entry: Cc1[nH]c2ccccc2c1CCNCc1ccc(/C=C/C(=O)NO)cc1 [Panobinostat]
// result 35.4

// query Look up and report measured relative IC50 for this entry: COc1cc2nccc(Oc3ccc(NC(=O)Nc4cc(C)on4)c(Cl)c3)c2cc1OC [Tivozanib]
// result 1870

// query Look up and report measured relative IC50 for this entry: Cn1c(=O)n(-c2ccc(C(C)(C)C#N)cc2)c2c3cc(-c4cnc5ccccc5c4)ccc3ncc21 [Dactolisib]
// result 7.77

// query Look up and report measured relative IC50 for this entry: Cc1ccc(NC(=O)c2ccc(CN3CCN(C)CC3)cc2)cc1Nc1nc(-c2cccnc2)cs1 [Masitinib]
// result 3370

// query Look up and report measured relative IC50 for this entry: CC/C(=C(\c1ccc(O)cc1)c1ccc(OCCN(C)C)cc1)c1ccccc1 [4-hydroxytamoxifen]
// result 2540

// query Look up and report measured relative IC50 for this entry: Nc1ncnc2c1nc(Cl)n2[C@@H]1O[C@H](CO)[C@@H](O)[C@H]1O [8-chloro-adenosine]
// result 2800
